Each recorded value in this set is attributed to paper PMC10757926.

molecular target: biotinylated recombinant hSIRPα (extracellular portion) (human, UniProt P78324 31-373, biotin (Sulfo-NHS-LC-LC-Biotin)); assay: BLI
Sequence (P78324 31-373): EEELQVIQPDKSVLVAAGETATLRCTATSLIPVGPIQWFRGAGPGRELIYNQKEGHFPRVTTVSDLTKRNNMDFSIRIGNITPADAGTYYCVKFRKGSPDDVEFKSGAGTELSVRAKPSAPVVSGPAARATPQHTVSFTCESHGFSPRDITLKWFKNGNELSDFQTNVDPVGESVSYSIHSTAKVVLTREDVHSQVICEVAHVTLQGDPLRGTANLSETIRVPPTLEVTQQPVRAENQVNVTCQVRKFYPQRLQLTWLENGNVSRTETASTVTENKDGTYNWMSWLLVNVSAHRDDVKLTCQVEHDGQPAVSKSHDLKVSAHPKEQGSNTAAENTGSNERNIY
Experimental endpoint: Kd (nM)
Report as a plain number; the unit nM is understood.

{"Binder": "hSIRPα Nb S33 (VHH) VHH: EVQLVESGGGLVQPGGSLRLSCTTSGFTLDYYSVGWFRQAPGKEREGVSCITASGSSTNYANSVKGRFTISRDKVKNTVYLQMSSLKPEDTAVYYCAAEPCTVVAGILQAPTSDFGSWGQGTQVTVSS", "Kd [nM]": 20}
{"Binder": "hSIRPα Nb S41 (VHH) VHH: HVQLVESGGGLVQPGGSLRLSCAASGETLDYYAIGYVRQAPGKEREGVSCISSRGDNTNYADSVKGRFTISRDNANNTVYLQMNSLKPEDTAVYYCVAIKDSWQNYYCSVGWVEYDVWGQGTQVTVSS", "Kd [nM]": 5.65}

Attention now shifts to the item below.
Lookup result for hSIRPα Nb S45 (VHH) VHH: HVQLVESGGGLVQPGGSLRLSCAARGFSFRDSAMSWARQAPGKGLEWVGAIYSDGSTVYEKSVKGRFTISRDNAKNTMYLQMHSLKPEDSARYYCAPKGVVADEGDYSGQGTLVTVSS ; measured Kd: 2.53
